assay: E. coli growth modulation, two-sided OD650, primary screen, E. coli filamentation project, strain DRC41, 24 h (AID 1093); details: OD650, 24 h, higher = more signal, called active from +8 up or from −8 down;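 note: MC1000 strain lacking acrAB efflux and sulA so SOS filamentation is blocked; test concentration not given here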
Outcome label depends on z-score relative to 0.04: at/above gives fulfilled, below gives not fulfilled.

IN: Check if z-score >= 0.04 (inclusive). Item: C=CCNC(=O)[C@@H]1[C@H]2C(=O)O[C@H](c3ccccc3)[C@H](c3ccccc3)N2[C@H](c2ccc(OCCO)cc2)[C@@]12C(=O)Nc1ccccc12
OUT: fulfilled

IN: Input COc1ccc([Si](C)(C)[C@@H]2[C@@H](CC(=O)N(CCO)Cc3ccccc3)O[C@]3(C(=O)N(C)c4ccccc43)[C@H]2C)cc1
OUT: not fulfilled

IN: Do the same for CCOC(=O)C[C@H]1[C@H](OC(=O)c2ccc(C(=O)c3ccccc3)cc2)[C@@H](NC(=O)C2CCCCC2)c2cc(OCCCO)ccc2N1C(=O)c1ccccc1 please
OUT: not fulfilled

IN: What about this compound? COc1cc2c(cc1OC)CN(C(=O)[C@@H]1[C@H]3C(=O)O[C@H](c4ccccc4)[C@H](c4ccccc4)N3[C@H](c3ccccc3OCCO)[C@@]13C(=O)Nc1ccc(C#CCNC(N)=O)cc13)CC2
OUT: fulfilled

IN: What do you get for COc1ccc(C(=O)Nc2cccc(CN3C(=O)[C@]4(O[C@H](CC(=O)N5CCC[C@H]5CO)[C@@H]([Si](C)(C)c5ccc(OC)cc5)[C@@H]4C)c4ccccc43)c2)cc1 ?
OUT: fulfilled

IN: And for COCCOC(=O)N1C(=O)[C@@]2(c3cc(C#CCC(C(=O)OC)C(=O)OC)ccc31)[C@H](c1ccccc1OCCO)N1[C@H](c3ccccc3)[C@H](c3ccccc3)OC(=O)[C@H]1[C@@H]2C(=O)N1CCc2cc(OC)c(OC)cc2C1 ?
OUT: fulfilled

IN: What about this compound? COc1ccc(CCNC(=O)[C@@]2(c3ccc([N+](=O)[O-])cc3)CC(=O)N(CC34CC5CC(CC(C5)C3)C4)[C@@H]2c2ccc(CO)cc2)cc1
OUT: not fulfilled

IN: Also need Cc1ccc(S[C@]2(C(=O)NC3CC3)CC(=O)N(Cc3ccccc3)[C@@H]2c2ccc(CO)cc2)cc1 , thanks.
OUT: not fulfilled

IN: Do the same for CCCNC(=O)[C@@]1(c2ccc([N+](=O)[O-])cc2)CC(=O)N(CC23CC4CC(CC(C4)C2)C3)[C@@H]1c1ccc(CO)cc1 please
OUT: fulfilled

IN: Now consider CCCN1C(=O)[C@]2(COC(c3ccc(OCCCO)cc3)=N2)Cc2ccccc21 .
OUT: fulfilled

IN: Moving on to N#Cc1ccc(NN2C(C(O)c3cccs3)C=CC3C(=O)N(c4ccccc4)C(=O)C32)cc1 (configuration not stated)
OUT: not fulfilled

IN: Repeat for the following compound: COC(=O)C[C@@H]1C[C@H](C)[C@]2(O1)C(=O)N(Cc1ccccc1)c1ccc(NC(C)=O)cc12
OUT: fulfilled

IN: Then CS(=O)(=O)CCOC(=O)C1=CC(c2ccc(CO)cc2)=CC(C2CC2)N(Cc2cc3c(cc2Br)OCO3)C=C1C(=O)OCCS(C)(=O)=O (configuration not stated) ?
OUT: fulfilled

IN: Same for [N-]=[N+]=NCc1ccccc1C[C@@]1(C(=O)N2CCOCC2)N=C(c2ccc(OCCCO)cc2)O[C@@H]1c1ccccc1CN=[N+]=[N-]
OUT: fulfilled

IN: And NC(=O)NCC#Cc1ccc2c(c1)[C@]1(C(=O)N2)[C@H](C(=O)NC[C@H](O)c2ccccc2)[C@H]2C(=O)O[C@H](c3ccccc3)[C@H](c3ccccc3)N2[C@@H]1c1ccc(O)cc1 ?
OUT: not fulfilled

IN: What would you report for COCCCNC(=O)[C@@]1(C)c2ccccc2C(=O)N(Cc2cc(C(F)(F)F)cc(C(F)(F)F)c2)[C@H]1c1ccc(CO)cc1 ?
OUT: fulfilled

IN: Cool, now Cc1ccccc1C(O)C1C=CC2C(=O)N(C)C(=O)C2N1N1CCCCC1 (configuration not stated)
OUT: not fulfilled

IN: Please answer likewise for CCOC(=O)C1=CCC(C(C)(C)C)N(S(=O)(=O)c2ccc(C)cc2)C1 (configuration not stated)
OUT: not fulfilled

IN: Same lookup for COC(=O)[C@]1(Cc2ccccc2N=[N+]=[N-])N=C(c2ccc(OCCCO)cc2)O[C@@H]1c1ccccc1N=[N+]=[N-] , please.
OUT: not fulfilled

IN: Likewise for O=C1N(CCS(=O)(=O)c2ccccc2)c2ccccc2C[C@@]12COC(c1ccc(OCCCO)cc1)=N2 ?
OUT: not fulfilled

IN: What about this compound? CCOC(=O)C[C@H]1[C@H](OC(=O)c2ccc(-c3ccccc3)cc2)[C@@H](NC(=O)c2ccc3ccccc3c2)c2cc(OCCCO)ccc2N1C(=O)Cc1ccc(OC)cc1
OUT: fulfilled

IN: Would you mind doing CC(C)CNC(=O)[C@@]1(c2ccc([N+](=O)[O-])cc2)CC(=O)N(CC23CC4CC(CC(C4)C2)C3)[C@@H]1c1ccc(CO)cc1I as well?
OUT: not fulfilled

IN: Next record, please: CN(C)CCCCCCNC(=O)[C@H]1C[C@H]2C(=O)N[C@@H](CCCCN)C(=O)N2[C@H]1c1ccc(O)cc1
OUT: not fulfilled

IN: Next compound: O=C1C[C@]2(c3ccc([N+](=O)[O-])cc3)C(=O)N(CC(F)(F)F)c3cc(CO)ccc3[C@H]2N1CC12CC3CC(CC(C3)C1)C2
OUT: not fulfilled

IN: Another compound: CCOC(=O)[C@H]1C/C=C/C[C@H](C(=O)OCC)C(=O)O[C@H]2[C@@H](OC)O[C@H](CO)[C@@H](OC(=O)Nc3ccc4c(c3)OCO4)[C@@H]2OC1=O
OUT: fulfilled

IN: Field entry: Cc1ccc(S[C@]2(C(=O)NCC(C)C)CC(=O)N(Cc3ccccc3)[C@@H]2c2ccc(CO)cc2I)cc1
OUT: not fulfilled

IN: Next compound: O=C1C2C=CC(C(O)c3ccc(F)cc3)N(Nc3ccccc3)C2C(=O)N1c1ccccc1 (configuration not stated)
OUT: not fulfilled
